- system-name: human Cav2.2 (Homo sapiens, UniProt Q00975)
- Sequence (Q00975 whole entry): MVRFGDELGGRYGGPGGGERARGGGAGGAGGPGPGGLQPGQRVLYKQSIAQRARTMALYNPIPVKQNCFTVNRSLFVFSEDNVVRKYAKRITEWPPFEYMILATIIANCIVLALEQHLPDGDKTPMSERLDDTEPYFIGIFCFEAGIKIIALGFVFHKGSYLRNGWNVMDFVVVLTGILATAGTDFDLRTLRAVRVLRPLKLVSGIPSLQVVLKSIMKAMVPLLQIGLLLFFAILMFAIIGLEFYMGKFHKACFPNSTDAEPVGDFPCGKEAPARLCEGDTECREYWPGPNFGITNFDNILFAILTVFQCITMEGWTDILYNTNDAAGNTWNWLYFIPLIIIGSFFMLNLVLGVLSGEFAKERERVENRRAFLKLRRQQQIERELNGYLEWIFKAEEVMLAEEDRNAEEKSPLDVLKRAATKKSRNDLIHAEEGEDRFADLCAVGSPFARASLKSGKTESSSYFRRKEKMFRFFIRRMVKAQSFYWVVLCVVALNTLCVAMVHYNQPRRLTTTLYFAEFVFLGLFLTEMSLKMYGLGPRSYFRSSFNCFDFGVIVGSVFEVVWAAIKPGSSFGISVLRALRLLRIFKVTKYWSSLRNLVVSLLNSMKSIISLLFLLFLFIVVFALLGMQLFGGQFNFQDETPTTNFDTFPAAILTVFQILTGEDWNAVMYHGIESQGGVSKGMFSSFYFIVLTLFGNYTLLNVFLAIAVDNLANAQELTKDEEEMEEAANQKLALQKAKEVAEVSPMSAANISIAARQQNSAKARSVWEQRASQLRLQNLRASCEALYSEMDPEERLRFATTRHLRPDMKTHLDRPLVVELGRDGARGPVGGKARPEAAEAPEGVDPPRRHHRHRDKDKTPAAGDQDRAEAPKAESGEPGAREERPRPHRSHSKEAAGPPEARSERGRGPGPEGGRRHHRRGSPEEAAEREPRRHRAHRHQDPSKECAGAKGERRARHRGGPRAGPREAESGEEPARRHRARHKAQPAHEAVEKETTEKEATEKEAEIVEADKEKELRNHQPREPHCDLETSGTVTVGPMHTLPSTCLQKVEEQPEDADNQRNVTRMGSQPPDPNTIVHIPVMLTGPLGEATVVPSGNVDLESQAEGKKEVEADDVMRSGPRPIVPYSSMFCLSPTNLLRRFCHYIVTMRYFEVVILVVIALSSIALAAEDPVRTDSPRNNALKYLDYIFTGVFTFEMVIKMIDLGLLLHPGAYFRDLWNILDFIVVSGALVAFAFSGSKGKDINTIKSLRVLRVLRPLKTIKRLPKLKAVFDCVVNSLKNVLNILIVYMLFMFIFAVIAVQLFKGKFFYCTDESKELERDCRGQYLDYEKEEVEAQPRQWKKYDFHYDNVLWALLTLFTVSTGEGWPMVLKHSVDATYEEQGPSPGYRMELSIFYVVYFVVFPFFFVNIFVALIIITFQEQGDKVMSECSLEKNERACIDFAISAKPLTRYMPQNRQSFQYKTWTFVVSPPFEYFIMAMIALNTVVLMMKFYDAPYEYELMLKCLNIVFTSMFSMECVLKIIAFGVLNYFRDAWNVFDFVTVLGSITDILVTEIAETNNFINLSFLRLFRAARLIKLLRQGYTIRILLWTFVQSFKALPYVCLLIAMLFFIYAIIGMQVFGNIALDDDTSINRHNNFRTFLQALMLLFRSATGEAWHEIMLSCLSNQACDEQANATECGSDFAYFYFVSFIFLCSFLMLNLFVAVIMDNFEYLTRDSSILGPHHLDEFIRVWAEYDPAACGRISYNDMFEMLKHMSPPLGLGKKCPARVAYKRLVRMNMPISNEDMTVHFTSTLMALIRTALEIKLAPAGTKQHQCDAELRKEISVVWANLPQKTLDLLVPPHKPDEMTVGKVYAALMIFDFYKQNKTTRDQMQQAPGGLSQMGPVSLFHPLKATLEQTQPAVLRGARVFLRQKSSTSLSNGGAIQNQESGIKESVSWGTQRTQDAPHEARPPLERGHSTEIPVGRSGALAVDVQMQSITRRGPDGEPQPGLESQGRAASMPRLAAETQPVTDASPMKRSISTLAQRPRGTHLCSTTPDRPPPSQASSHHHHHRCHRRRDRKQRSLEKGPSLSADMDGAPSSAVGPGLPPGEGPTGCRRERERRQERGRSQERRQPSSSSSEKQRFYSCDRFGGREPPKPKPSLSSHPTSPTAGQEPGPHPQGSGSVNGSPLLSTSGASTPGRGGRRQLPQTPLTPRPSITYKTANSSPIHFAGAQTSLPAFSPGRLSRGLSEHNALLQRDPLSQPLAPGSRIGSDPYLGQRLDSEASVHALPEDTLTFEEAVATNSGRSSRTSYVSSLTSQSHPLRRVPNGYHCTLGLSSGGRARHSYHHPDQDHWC
- Sequence (P54289 25-951 partner limits assumed): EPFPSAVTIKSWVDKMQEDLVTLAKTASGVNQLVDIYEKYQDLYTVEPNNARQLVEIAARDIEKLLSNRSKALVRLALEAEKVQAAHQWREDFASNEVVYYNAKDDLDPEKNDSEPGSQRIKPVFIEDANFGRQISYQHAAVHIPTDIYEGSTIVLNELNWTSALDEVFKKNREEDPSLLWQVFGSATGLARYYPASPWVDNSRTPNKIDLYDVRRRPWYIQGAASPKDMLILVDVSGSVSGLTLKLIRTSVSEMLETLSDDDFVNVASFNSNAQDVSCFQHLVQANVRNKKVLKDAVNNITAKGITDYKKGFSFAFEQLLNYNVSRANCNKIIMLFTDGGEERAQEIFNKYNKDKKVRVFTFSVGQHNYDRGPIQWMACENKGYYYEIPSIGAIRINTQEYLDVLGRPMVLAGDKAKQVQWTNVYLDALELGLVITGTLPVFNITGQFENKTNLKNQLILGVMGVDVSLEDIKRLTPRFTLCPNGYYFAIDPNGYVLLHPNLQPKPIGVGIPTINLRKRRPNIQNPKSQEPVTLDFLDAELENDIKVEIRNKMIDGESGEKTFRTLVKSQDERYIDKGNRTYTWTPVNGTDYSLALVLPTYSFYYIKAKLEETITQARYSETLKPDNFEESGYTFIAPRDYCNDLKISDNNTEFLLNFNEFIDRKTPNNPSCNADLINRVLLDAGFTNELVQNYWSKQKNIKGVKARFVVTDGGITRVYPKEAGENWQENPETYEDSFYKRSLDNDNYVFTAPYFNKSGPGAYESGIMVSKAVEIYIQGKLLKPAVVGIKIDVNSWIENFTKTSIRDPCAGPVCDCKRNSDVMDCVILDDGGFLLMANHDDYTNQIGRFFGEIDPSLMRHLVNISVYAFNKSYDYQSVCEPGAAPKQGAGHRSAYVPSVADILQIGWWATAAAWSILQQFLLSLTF
- Sequence (P54289 952-1103 partner limits assumed): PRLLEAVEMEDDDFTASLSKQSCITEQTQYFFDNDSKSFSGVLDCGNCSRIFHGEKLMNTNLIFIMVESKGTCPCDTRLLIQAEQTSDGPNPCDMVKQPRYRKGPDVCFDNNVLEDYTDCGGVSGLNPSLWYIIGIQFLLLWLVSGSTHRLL
- Sequence (P54284 whole entry partner): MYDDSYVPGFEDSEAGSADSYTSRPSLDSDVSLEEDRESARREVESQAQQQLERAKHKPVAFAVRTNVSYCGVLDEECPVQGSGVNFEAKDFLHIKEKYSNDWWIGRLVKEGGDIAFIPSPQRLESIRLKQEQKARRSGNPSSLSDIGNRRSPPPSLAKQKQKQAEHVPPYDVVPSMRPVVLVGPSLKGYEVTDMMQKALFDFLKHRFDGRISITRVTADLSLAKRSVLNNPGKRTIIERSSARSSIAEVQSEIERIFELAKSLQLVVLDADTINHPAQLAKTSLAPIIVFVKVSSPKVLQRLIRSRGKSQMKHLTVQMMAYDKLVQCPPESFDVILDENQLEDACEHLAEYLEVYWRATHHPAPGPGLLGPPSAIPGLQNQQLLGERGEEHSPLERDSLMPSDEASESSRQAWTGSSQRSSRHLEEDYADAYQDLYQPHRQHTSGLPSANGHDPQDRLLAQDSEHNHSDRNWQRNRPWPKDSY
- experiment-notes: Assessment of calcium channel activity using FLIPR (Ca2+ influx in IMR32 cells)
- condition-label: IMR32 cells endogenously expressing human Cav2.2; 60 minute pre-incubation; 2 μM nifedipine; depolarized with 80 mM KCl, 5 mM CaCl2
Assign pIC50 to each entry below.
Scale explanation: pIC50 corresponds to minus log10 of a concentration expressed in moles per litre.

**Q:** Consider the molecule COc1ccc(CC2(C)CN(C(=O)CN3CCC(c4ccccc4)(c4ccccc4)C3=O)CCN2)cc1OC (centres unmarked) and give its measured pIC50.
**A:** 5.69

**Q:** Moving on to the next molecule: O=C1N(Cc2nc(-c3cnccn3)no2)CCC1(c1ccc(F)cc1)c1ccc(F)cc1
**A:** 5.72

**Q:** Moving on to the next molecule: O=C(CN1CCC(c2ccc(F)cc2)(c2ccc(F)cc2)C1=O)Nc1ccc(C(F)(F)F)cc1
**A:** 5.17

**Q:** Moving on to the next molecule: O=C(CN1CCC(c2ccccc2)(c2ccccc2)C1=O)N1CCC(c2ccccc2)(c2ccccc2)CC1
**A:** 6.34

**Q:** Moving on to the next molecule: O=C(CN1CCC(c2ccc(F)cc2Cl)C1=O)N1Cc2ccc(C(F)(F)F)cc2C1 (centres unmarked)
**A:** 5.49

**Q:** Moving on to the next molecule: O=C1N(Cc2nc(-c3ccc(O)cc3)no2)CCCC1(c1ccccc1)c1ccccc1
**A:** 5.31

**Q:** Moving on to the next molecule: O=C(CN1CCC(c2ccccc2)(c2ccccc2)C1=O)NC1Cc2ccccc2C1
**A:** 5.40

**Q:** Moving on to the next molecule: O=C(CN1CCC(c2ccc(F)cc2)C1=O)N1Cc2ccc(C(F)(F)F)cc2C1 (centres unmarked) [Example 216]
**A:** 5.03
